So I've got a bunch of molecules here, and I need their Vd values.
experiment: Pharmacokinetic test of compounds in rats (plasma, LC/MS/MS); type: in vivo, male SD rats; conditions: male, SD, rat, plasma, IV, 3 mg/kg, read-out: Apparent volume of distribution Vd
One number for each entry, in L/kg.

{"MOLECULE": "O=C(Nc1cnn2ccc(N3CCC[C@@H]3c3cc(F)ccc3F)nc12)N1CC[C@H](O)C1 [LOXO-101, larotrectinib, reference compound]", "Vd, L/kg": 1.7}

Now look at this entry.
Task: Look up Vd: O=C1NC2(CC2)COc2ncc(F)cc2C2COCCN2c2ccn3ncc1c3n2 (single isomer, unassigned) [WX001B]
Output: 1.9
